Data credit: ChEMBL document CHEMBL5214888

# Assay comment: Oral bioavailability in C57Bl/6 mouse plasma at 20 mg/kg and measured upto 8 hrs by LC-MS/MS analysis
# Assay type: ADME, organism-based
Result type: bioavailability (%)
A number alone suffices; assume %.

Query (compound): O=C(Nc1nccs1)C(c1cc(F)ccc1O)N1Cc2ccc(-c3ccc(N4CCNCC4)cc3)cc2C1=O (stereo unspecified) ; field requested: bioavailability 3

* * *

# Tested on: A549
# Assay comment: Antiproliferative activity against human A549 assessed as inhibition of cell proliferation
# Assay type: functional, cell-based
Result type: IC50 (nM)
Lab book: enter the figure in nM, no units written.

Kindly state the measured IC50 obtained for "COc1ccc(-c2c3c4cc(OCCCN(C)C)c(OCCCN(C)C)cc4oc(=O)c3n3ccc4cc(O)c(OC)cc4c23)cc1O" with A549. 2860

* * *

So I've got a bunch of compounds here, and I need their pIC50 values.
# Experimental target: Epidermal growth factor receptor (Homo sapiens, UniProt P00533, C797S/L858R/T790M)
# Sequence (P00533 25-1210 T790M/C797S/L858R limits assumed): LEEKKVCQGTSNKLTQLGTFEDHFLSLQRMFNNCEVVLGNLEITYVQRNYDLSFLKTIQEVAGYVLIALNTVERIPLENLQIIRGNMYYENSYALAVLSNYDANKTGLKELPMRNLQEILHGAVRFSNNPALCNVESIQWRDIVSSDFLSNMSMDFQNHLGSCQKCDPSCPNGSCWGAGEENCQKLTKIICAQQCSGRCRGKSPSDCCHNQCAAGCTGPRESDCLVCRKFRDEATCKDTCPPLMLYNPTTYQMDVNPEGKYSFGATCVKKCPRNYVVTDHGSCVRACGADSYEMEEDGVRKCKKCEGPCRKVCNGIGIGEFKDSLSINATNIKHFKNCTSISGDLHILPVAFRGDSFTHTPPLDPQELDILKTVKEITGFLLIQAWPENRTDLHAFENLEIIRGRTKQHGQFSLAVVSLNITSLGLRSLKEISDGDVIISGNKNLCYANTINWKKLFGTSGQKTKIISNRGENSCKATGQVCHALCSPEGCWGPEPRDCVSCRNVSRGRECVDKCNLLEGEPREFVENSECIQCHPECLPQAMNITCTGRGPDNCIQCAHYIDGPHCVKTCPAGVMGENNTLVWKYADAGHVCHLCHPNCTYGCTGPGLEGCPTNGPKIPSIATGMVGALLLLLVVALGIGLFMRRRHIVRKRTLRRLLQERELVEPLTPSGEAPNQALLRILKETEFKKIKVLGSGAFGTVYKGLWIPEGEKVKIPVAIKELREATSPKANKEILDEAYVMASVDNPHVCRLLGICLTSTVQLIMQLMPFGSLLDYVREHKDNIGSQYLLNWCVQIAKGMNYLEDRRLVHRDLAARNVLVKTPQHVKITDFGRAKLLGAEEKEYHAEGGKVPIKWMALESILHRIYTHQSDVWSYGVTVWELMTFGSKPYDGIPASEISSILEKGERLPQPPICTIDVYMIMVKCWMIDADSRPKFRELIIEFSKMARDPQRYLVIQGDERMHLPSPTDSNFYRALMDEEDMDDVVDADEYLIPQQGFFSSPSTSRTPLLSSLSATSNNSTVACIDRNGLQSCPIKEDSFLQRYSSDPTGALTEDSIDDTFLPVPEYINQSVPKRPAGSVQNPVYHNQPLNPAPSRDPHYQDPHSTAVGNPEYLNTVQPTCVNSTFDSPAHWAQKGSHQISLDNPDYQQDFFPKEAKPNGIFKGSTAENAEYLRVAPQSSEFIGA
# Assay comment: Inhibition of EGFR L858R/T790M/C797S mutant (unknown origin)
# pIC50 = -log10(concentration in molar units)

Requested field: pIC50. Item: OCCCCc1ccc(-c2nc(-c3ccc(F)cc3)c(-c3ccnc4c3CC(c3ccccc3)N4)[nH]2)cc1 (stereo not drawn) 8.05

pIC50 lookup needed for OCCc1ccc(-c2nc(-c3ccc(F)cc3)c(-c3ccnc4c3CC(c3ccccc3)N4)[nH]2)cc1 (stereo not drawn) , thanks. 8.12

* * *

Could you please report measured IC50 for the items listed next?
# Experimental target: Epidermal growth factor receptor (Homo sapiens, UniProt P00533, C797S/EX19DEL/T790M)
# Sequence (P00533 whole entry, looked up, stated change not applied): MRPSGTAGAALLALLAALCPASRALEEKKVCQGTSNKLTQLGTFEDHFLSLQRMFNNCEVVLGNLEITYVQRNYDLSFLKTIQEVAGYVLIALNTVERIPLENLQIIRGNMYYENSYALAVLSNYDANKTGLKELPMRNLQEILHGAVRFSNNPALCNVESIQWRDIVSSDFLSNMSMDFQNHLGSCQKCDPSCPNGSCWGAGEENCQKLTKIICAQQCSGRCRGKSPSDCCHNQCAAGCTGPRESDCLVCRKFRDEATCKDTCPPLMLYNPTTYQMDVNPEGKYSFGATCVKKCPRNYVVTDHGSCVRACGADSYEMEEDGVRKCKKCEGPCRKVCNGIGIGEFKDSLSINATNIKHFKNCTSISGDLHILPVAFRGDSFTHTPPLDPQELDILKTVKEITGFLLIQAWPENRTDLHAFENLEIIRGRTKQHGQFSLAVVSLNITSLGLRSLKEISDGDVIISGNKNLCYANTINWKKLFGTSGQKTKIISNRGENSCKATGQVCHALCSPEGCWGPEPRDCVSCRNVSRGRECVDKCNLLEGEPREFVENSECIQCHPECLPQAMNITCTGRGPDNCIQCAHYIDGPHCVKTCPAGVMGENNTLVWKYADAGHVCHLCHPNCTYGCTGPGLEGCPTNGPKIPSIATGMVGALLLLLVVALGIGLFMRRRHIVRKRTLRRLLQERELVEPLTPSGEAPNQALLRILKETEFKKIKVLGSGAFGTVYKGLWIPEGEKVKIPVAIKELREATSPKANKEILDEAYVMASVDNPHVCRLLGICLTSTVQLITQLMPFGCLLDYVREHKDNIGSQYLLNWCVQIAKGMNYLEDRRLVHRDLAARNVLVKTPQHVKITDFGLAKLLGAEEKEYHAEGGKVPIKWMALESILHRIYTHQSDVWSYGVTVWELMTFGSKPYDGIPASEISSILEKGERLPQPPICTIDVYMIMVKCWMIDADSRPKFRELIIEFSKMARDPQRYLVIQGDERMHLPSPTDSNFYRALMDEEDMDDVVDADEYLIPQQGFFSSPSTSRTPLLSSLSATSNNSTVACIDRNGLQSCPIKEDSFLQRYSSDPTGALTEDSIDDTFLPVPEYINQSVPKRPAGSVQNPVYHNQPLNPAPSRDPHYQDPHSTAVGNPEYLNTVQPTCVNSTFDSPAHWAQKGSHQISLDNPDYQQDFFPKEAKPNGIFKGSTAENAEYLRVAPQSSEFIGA
# Assay comment: Inhibition of human EGFR del19/T790M/C797S mutant assessed as enzyme remaining activity using poly-Glu-Tyr peptide substrate incubated for 2 hrs in presence of [gamma-33P]ATP by radiometric kinase assay
State the answer as a number, implicitly in nM.

Notebook entry, Epidermal growth factor receptor (Homo sapiens, UniProt P00533, C797S/EX19DEL/T790M) assay: IC50 of "Oc1ccccc1-c1nc(NCc2cccnc2)c2ccccc2n1" = ? 149

Form: Entry = "N#Cc1ccc(O)c(-c2nc(NCc3cccnc3)c3ccccc3n2)c1" | System = Epidermal growth factor receptor (Homo sapiens, UniProt P00533, C797S/EX19DEL/T790M) | IC50 = ____ 17.9

GET /values?readout=IC50&system=Epidermal growth factor receptor (Homo sapiens, UniProt P00533, C797S/EX19DEL/T790M)&item= "COC(=O)c1ccc(O)c(-c2nc(NCc3cccnc3)c3ccccc3n2)c1" 46

Can you look up IC50 on Epidermal growth factor receptor (Homo sapiens, UniProt P00533, C797S/EX19DEL/T790M) for "N#Cc1ccc(O)c(-c2nc(NCc3cnccn3)c3ccccc3n2)c1" ? 17

* * *

# Experimental target: Epidermal growth factor receptor (Homo sapiens, UniProt P00533, C797S/L858R/T790M)
# Assay comment: Inhibition of human GST-tagged EGFR L858R/T790M/C797S mutant expressed in Sf9 cells assessed as substrate phosphorylation using TK-peptide as substrate incubated for 10 mins by HTRF assay
Result type: IC50 (nM)
Number in nM, nothing else.

What IC50 value was documented for this molecule, "CCC(=O)Nc1cccc(-c2c(-c3ccc(N4CCN(C)CC4)cc3)[nH]c3ncnc(OCC(C)C)c23)c1" ? 8.5

Tell me the measured IC50 of "CCCCOc1ncnc2[nH]c(-c3ccc(N4CCN(C)CC4)cc3)c(-c3cccc(NC(=O)CC)c3)c12" , please. 9.4

Reported IC50 for "CCC(=O)Nc1cccc(-c2c(-c3ccc(N4CCN(C)CC4)cc3)[nH]c3ncn(C4CCCCC4)c(=O)c23)c1" : what is it? 22

What does the data say about its IC50? Entry: "CCC(=O)Nc1cccc(-c2c(-c3ccc(N4CCN(C)CC4)cc3)[nH]c3ncnc(OC(C)C)c23)c1" 8.6
